Tested on: TK-10 renal
METHOD NOTES: NCI tumour cell line growth inhibition, 48 h
MEASUREMENT TYPE: TGI

* CC(=O)N[C@@H]1C(O)CN2C(=O)C(=O)O[C@H](C(O)CO)[C@@H]12 (stereo partly specified) | > 100 µM
* C=C(CCC(C)C1CCC2C3=C(C(=O)CC21C)C1(C)CCC(=O)[C@@H](C)C1CC3=O)C(C)C(=O)O (stereo partly specified) | > 100 µM
* COc1ccccc1/C=C/[N+](=O)[O-] | 6.31 µM
* Cc1ccccc1-n1c(C)nc2c1C(=O)c1ccccc1C2=O | > 100 µM
* Nc1cccc2c1C(=O)c1cccc(N)c1C2=O | > 100 µM
* C/C(=N\O)c1cccc(Nc2cc(-n3ccnn3)c3ccccc3n2)c1 | 46.3 µM
* O=C1c2ccc([N+](=O)[O-])cc2-c2c1c1ccccc1c(=O)n2CCCNCCCNCCCn1c2c(c3ccc([N+](=O)[O-])cc3c1=O)C(=O)c1ccccc1-2 | 33.9 µM
* Cc1ccc(C2=NOC(=O)[C@@H]3CCCC[C@@H]23)cc1 | > 100 µM
* C=C1SC(=Nc2c(C)cc(C)cc2C)N(C(=O)c2sc3ccccc3c2Cl)C12CCCCC2 | > 100 µM
* O=C(/C(=C\C(=O)c1cccs1)c1ccsc1)c1ccc(Br)cc1 | > 100 µM
* COc1ccc(Nc2ncc(Br)c(NCCCNC(=O)C3CCC3)n2)cc1 | 38.7 µM
* COc1ccc2c(c1)C(N)=C(c1ccccc1)C2=O | > 100 µM
* COc1ccc(NC(=O)C(=O)Cc2nc3ccc([N+](=O)[O-])cc3[nH]c2=O)c(OC)c1 | > 100 µM
* NC1CCCCC1.[O]=[Ge].[O]=[Ge].[O]=[Ge][OH].[O]=[Ge][OH] | > 100 µM
* O=C(O)[C@@H]1[C@H](C(=O)O)[C@H](C(=O)O)C[C@@H]1C(=O)O | > 100 µM
* CN1CCN(c2c(Cl)cc(Cl)c3[nH]c4ccccc4c(=O)c23)CC1 | 26.2 µM
* CCCCS(=O)CCC(N)C(=O)O (stereo unspecified) | > 100 µM
* COc1cc(/C=C/C(=O)c2c(=O)o[nH][n+]2-c2ccccc2)ccc1[O-] | 10.5 µM
* O=C(c1ccc2ccccc2c1)c1c(C(F)(F)F)n([O-])c2cc(F)c(F)cc2[n+]1=O | 3.41 µM
* COc1ccc2c(c1)/C(=C\c1cccnc1)C(=O)N2 | 44.6 µM
* CCOC(=O)C(NC(=O)N(C1=NCC(C)S1)C1CCCCC1)(OC)C(F)(F)F (stereo unspecified) | > 100 µM

----------
Tested on: A549 NSCLC
METHOD NOTES: NCI tumour cell line growth inhibition, 48 h
MEASUREMENT TYPE: TGI

• CC(=O)Nc1ccc(C(=O)NN2C(=O)C(Cl)C2c2ccc([N+](=O)[O-])cc2)cc1 (stereo not given) = > 100 µM
• COc1nc2c(c(=O)n1C)N[C@H]1[C@H](OC(C)=O)[C@@H](OC(C)=O)CO[C@H]1N2 = > 100 µM
• Cc1ccc(C(=O)O)c(CC2Cc3c(C)cccc3C2=O)c1 (stereo not given) = > 100 µM
• CCCn1c(SC)nc(COC(=O)NC)c1COC(=O)NC = > 100 µM
• CN(C)CCNC(=O)c1ccc(NCCCN(C)CCCNc2ccc3c(=O)n(CCN(C)C)c(=O)n4c5ccccc5c(=O)c2c34)c2c(=O)c3ccccc3[nH]c12 = 0.164 µM
• Cc1ccccc1-n1c(C)nc2c1C(=O)c1ccccc1C2=O = > 100 µM
• CC1OC(OCC2OC(Oc3c(-c4ccc(O)cc4)oc4cc(O)cc(O)c4c3=O)C(OC3OC(C)C(O)C(O)C3O)C(O)C2O)C(O)C(O)C1O (stereo not given) = > 100 µM
• COc1ccccc1/C=C/[N+](=O)[O-] = 10.4 µM
• O=C(/C(=C\C(=O)c1cccs1)c1ccsc1)c1ccc(Br)cc1 = > 100 µM
• O=C(Nc1cccs1)c1c(O)[nH]c(=S)[nH]c1=O = > 100 µM
• Cc1ccc(S(=O)(=O)NNC(=O)c2cc(C)ccc2NC(=O)C23CC4CC(CC(C4)C2)C3)cc1 = > 100 µM
• CC[N+](C)(CC)CCC(O)(c1ccccc1)c1ccccc1 = > 100 µM
• O=c1[nH]c(=O)n([C@@H]2C[C@H](CO)[C@H](O)C2)cc1/C=C/Br = > 100 µM
• C/C(=C\c1ccccn1)c1ccccn1 = > 100 µM
• CC(=O)O[C@@H]1C[C@@]23C[C@@]24CC[C@H](OC2OCC(O)C(O)C2O)C(C)(C)[C@@H]4CC=C3[C@]2(C)C[C@@H]3OC4(C[C@@H](C)[C@@H]3[C@@]12C)OC(O)[C@@]1(C)O[C@@H]41 (stereo not given in full) = > 100 µM
• CCC(=O)O[C@H]1CC[C@H]2[C@@H]3CC[C@H]4CC(=O)[C@H](C)C[C@]4(C)[C@H]3CC[C@]12C = > 57.5 µM
• COc1ccc2c(c1)/C(=C\c1cccnc1)C(=O)N2 = 56.7 µM
• CCCCC1CC(c2cccc([N+](=O)[O-])c2)=NO1 (stereo not given) = > 100 µM
• OCC1OC(n2cnc3cncnc32)C(O)C1O (stereo not given) = 5.8 µM
• Cc1ccc(-c2cc(-c3ccco3)c(C#N)c(=O)[nH]2)cc1 = > 100 µM
